Entry source: ChEMBL document CHEMBL3102750

Measured IC50, listed per entry for reference.
- target-or-system: Muscarinic acetylcholine receptor M5 (Homo sapiens, UniProt P08912)
- Sequence (P08912 whole entry): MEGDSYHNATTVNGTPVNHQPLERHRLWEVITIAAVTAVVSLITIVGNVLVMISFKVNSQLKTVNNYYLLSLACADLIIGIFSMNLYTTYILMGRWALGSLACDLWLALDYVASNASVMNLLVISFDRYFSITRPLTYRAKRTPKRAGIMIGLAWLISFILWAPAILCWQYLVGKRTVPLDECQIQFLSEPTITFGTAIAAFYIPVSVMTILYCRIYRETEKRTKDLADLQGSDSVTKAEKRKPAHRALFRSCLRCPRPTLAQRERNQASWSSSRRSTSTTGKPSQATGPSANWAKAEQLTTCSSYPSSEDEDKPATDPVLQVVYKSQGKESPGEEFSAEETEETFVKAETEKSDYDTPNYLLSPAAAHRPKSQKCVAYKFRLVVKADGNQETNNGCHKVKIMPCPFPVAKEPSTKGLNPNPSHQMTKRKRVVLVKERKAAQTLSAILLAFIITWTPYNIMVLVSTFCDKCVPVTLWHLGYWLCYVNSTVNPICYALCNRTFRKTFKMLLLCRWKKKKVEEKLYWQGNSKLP
- protocol: Negative allosteric modulation of human muscarinic acetylcholine receptor M5 expressed in CHO cells assessed as inhibition of acetylcholine-induced calcium mobilization incubated for 150 secs prior to acetylcholine induction by Fluo-4 AM staining-based fluorescence assay
- Type: functional, cell-based

{"molecule": "O=C(c1ccc(F)c(F)c1)N1CCN2C(=O)c3ccccc3C12c1ccccc1 (stereo not drawn)", "target-or-system": "Muscarinic acetylcholine receptor M5 (Homo sapiens, UniProt P08912)", "comparison-operator": "=", "IC50 / µM": 1.05}
{"molecule": "Cc1ccc(C23c4ccccc4C(=O)N2CCN3C(=O)c2ccc(F)c(F)c2)cc1 (stereo not drawn)", "target-or-system": "Muscarinic acetylcholine receptor M5 (Homo sapiens, UniProt P08912)", "comparison-operator": "=", "IC50 / µM": 2.6}
{"molecule": "O=C(c1ccc(OC(F)(F)F)cc1)N1CCN2C(=O)c3ccccc3C12c1ccc(Cl)cc1 (stereo not drawn)", "target-or-system": "Muscarinic acetylcholine receptor M5 (Homo sapiens, UniProt P08912)", "comparison-operator": "=", "IC50 / µM": 2.3}
{"molecule": "O=C(c1ccc(OC(F)(F)F)cc1)N1CCN2C(=O)c3ccccc3C12c1ccc(F)cc1 (stereo not drawn)", "target-or-system": "Muscarinic acetylcholine receptor M5 (Homo sapiens, UniProt P08912)", "comparison-operator": ">", "IC50 / µM": 10}
{"molecule": "O=C(c1ccc(C(F)(F)F)cc1)N1CCN2C(=O)c3ccccc3C12c1ccc(F)cc1 (stereo not drawn)", "target-or-system": "Muscarinic acetylcholine receptor M5 (Homo sapiens, UniProt P08912)", "comparison-operator": ">", "IC50 / µM": 10}
{"molecule": "O=C(c1cc(F)cc(F)c1)N1CCN2C(=O)c3ccccc3C12c1ccc(F)cc1 (stereo not drawn)", "target-or-system": "Muscarinic acetylcholine receptor M5 (Homo sapiens, UniProt P08912)", "comparison-operator": ">", "IC50 / µM": 10}
{"molecule": "O=C(c1ccc(C(F)(F)F)cc1)N1CCN2C(=O)c3ccccc3C12c1ccccc1 (stereo not drawn)", "target-or-system": "Muscarinic acetylcholine receptor M5 (Homo sapiens, UniProt P08912)", "comparison-operator": "=", "IC50 / µM": 1.95}
{"molecule": "O=C(c1cc(Cl)cc(Cl)c1)N1CCN2C(=O)c3ccccc3C12c1ccccc1 (stereo not drawn)", "target-or-system": "Muscarinic acetylcholine receptor M5 (Homo sapiens, UniProt P08912)", "comparison-operator": "=", "IC50 / µM": 5.75}
{"molecule": "O=C(c1ccc(SC(F)(F)F)cc1)N1CCN2C(=O)c3ccccc3C12c1ccc(Cl)cc1 (stereo not drawn)", "target-or-system": "Muscarinic acetylcholine receptor M5 (Homo sapiens, UniProt P08912)", "comparison-operator": "=", "IC50 / µM": 3}
{"molecule": "O=C(c1ccc(SC(F)(F)F)cc1)N1CCN2C(=O)c3ccccc3C12c1ccc(F)cc1 (stereo not drawn)", "target-or-system": "Muscarinic acetylcholine receptor M5 (Homo sapiens, UniProt P08912)", "comparison-operator": "=", "IC50 / µM": 1.3}
{"molecule": "Cc1ccc(C23c4ccccc4C(=O)N2CCN3C(=O)c2cc(F)cc(F)c2)cc1 (stereo not drawn)", "target-or-system": "Muscarinic acetylcholine receptor M5 (Homo sapiens, UniProt P08912)", "comparison-operator": "=", "IC50 / µM": 2.3}
{"molecule": "O=C(c1ccc(OC(F)(F)F)cc1)N1CCN2C(=O)c3ccccc3C12c1ccccc1 (stereo not drawn)", "target-or-system": "Muscarinic acetylcholine receptor M5 (Homo sapiens, UniProt P08912)", "comparison-operator": "=", "IC50 / µM": 4.47}
{"molecule": "Cc1ccc(C23c4ccccc4C(=O)N2CCN3C(=O)c2ccc(OC(F)(F)F)cc2)cc1 (stereo not drawn)", "target-or-system": "Muscarinic acetylcholine receptor M5 (Homo sapiens, UniProt P08912)", "comparison-operator": "=", "IC50 / µM": 3.5}
{"molecule": "Cc1ccc(C23c4ccccc4C(=O)N2CCN3C(=O)c2ccc(SC(F)(F)F)cc2)cc1 (stereo not drawn)", "target-or-system": "Muscarinic acetylcholine receptor M5 (Homo sapiens, UniProt P08912)", "comparison-operator": "=", "IC50 / µM": 4.1}
{"molecule": "O=C(c1ccc(C(F)(F)F)cc1)N1CCN2C(=O)c3ccccc3C12c1ccc(Cl)cc1 (stereo not drawn)", "target-or-system": "Muscarinic acetylcholine receptor M5 (Homo sapiens, UniProt P08912)", "comparison-operator": "=", "IC50 / µM": 2}
{"molecule": "O=C(c1cc(F)cc(F)c1)N1CCN2C(=O)c3ccccc3C12c1ccc(Cl)cc1 (stereo not drawn)", "target-or-system": "Muscarinic acetylcholine receptor M5 (Homo sapiens, UniProt P08912)", "comparison-operator": "=", "IC50 / µM": 1}
{"molecule": "O=C(c1cccc(C(F)(F)F)c1)N1CCN2C(=O)c3ccccc3C12c1ccccc1 (stereo not drawn)", "target-or-system": "Muscarinic acetylcholine receptor M5 (Homo sapiens, UniProt P08912)", "comparison-operator": "=", "IC50 / µM": 3.02}
{"molecule": "Cc1ccc(C(=O)N2CCN3C(=O)c4ccccc4C23c2ccc(F)cc2)cc1 (stereo not drawn)", "target-or-system": "Muscarinic acetylcholine receptor M5 (Homo sapiens, UniProt P08912)", "comparison-operator": ">", "IC50 / µM": 10}
{"molecule": "O=C(c1cc(F)cc(F)c1)N1CCN2C(=O)c3ccccc3C12c1ccccc1 (stereo not drawn)", "target-or-system": "Muscarinic acetylcholine receptor M5 (Homo sapiens, UniProt P08912)", "comparison-operator": "=", "IC50 / µM": 3.8}
{"molecule": "O=C(c1ccc(F)c(F)c1)N1CCN2C(=O)c3ccccc3C12c1ccc(F)cc1 (stereo not drawn)", "target-or-system": "Muscarinic acetylcholine receptor M5 (Homo sapiens, UniProt P08912)", "comparison-operator": ">", "IC50 / µM": 10}
{"molecule": "Cc1ccc(C(=O)N2CCN3C(=O)c4ccccc4C23c2ccc(C)cc2)cc1 (stereo not drawn)", "target-or-system": "Muscarinic acetylcholine receptor M5 (Homo sapiens, UniProt P08912)", "comparison-operator": ">", "IC50 / µM": 10}
{"molecule": "O=C(c1cccc(C(F)(F)F)c1)N1CCN2C(=O)c3ccccc3C12c1ccc(F)cc1 (stereo not drawn)", "target-or-system": "Muscarinic acetylcholine receptor M5 (Homo sapiens, UniProt P08912)", "comparison-operator": "=", "IC50 / µM": 2.1}
{"molecule": "Cc1ccc(C23c4ccccc4C(=O)N2CCN3C(=O)c2ccc(C(F)(F)F)cc2)cc1 (stereo not drawn)", "target-or-system": "Muscarinic acetylcholine receptor M5 (Homo sapiens, UniProt P08912)", "comparison-operator": ">", "IC50 / µM": 10}
